molecular target: Focal Adhesion Kinase (FAK) (Homo sapiens, UniProt Q05397); test: FAK assay system (Focal Adhesion Kinase inhibition); format: biochemical; settings: read-out: FAK IC50
Sequence (Q05397 384-706): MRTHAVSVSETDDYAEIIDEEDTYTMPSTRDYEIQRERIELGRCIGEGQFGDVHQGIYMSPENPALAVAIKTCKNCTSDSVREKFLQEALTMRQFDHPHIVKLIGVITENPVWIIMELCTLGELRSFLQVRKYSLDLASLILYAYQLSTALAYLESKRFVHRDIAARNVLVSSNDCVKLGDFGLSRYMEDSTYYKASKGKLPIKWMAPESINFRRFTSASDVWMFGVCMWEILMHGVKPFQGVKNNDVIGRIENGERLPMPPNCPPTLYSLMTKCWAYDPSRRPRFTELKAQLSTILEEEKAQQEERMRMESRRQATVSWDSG
pIC50: −log10 of the molar value.
Rule: pIC50 of 8 or more gives met; anything lower gives not met.

COc1cc(N2CCN3CCOC[C@H]3C2)ccc1Nc1ncc(Cl)c(Nc2cccc3c2C(=O)N(C)C3)n1
met
COc1cc(N2CCCC(C(N)=O)C2)ccc1Nc1ncc(Cl)c(Nc2ccccc2S(=O)(=O)C2CC2)n1 (stereo not shown)
not met
CNS(=O)(=O)c1ccccc1Nc1nc(Nc2cc(N3CCOCC3)ccc2OC)ncc1Cl
not met
CCOc1cc(N2CCOCC2)ccc1Nc1ncc(Br)c(Nc2ccccc2S(=O)(=O)NC)n1
not met

Proceed to the following item.
Request: Evaluate COc1cc(N2CCC(N3CCNCC3)CC2)ccc1Nc1ncc(Cl)c(Nc2ccccc2S(=O)(=O)C(C)C)n1 : pIC50 at minimum 8?
Result: met
